- experimental-system: 5-hydroxytryptamine receptor 2B (Homo sapiens)
- Sequence (P41595 whole entry): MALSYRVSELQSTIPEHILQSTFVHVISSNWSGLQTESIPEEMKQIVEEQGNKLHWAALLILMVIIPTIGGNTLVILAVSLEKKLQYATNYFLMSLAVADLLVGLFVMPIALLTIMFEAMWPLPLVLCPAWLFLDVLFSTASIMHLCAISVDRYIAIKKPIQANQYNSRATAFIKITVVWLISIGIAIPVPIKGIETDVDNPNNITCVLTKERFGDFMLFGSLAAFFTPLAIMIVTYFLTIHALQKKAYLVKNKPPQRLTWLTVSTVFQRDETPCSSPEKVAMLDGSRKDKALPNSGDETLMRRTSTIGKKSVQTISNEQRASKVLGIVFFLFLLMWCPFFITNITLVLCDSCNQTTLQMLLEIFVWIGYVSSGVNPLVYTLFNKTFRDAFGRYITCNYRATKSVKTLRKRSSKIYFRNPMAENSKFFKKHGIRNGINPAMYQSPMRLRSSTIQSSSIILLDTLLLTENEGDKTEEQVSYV
observed-property: pIC50
Formally, pIC50 is defined as -log10 of the concentration c, with c in mol/L.

q: Lookup: pIC50 / 5-hydroxytryptamine receptor 2B (Homo sapiens) / "Cc1nc2sccn2c(=O)c1CCN1CCC(=C(c2ccc(F)cc2)c2ccc(F)cc2)CC1"
a: 8.52

----------
- experimental-system: UniProtKB P28335
- Sequence (P28335 whole entry): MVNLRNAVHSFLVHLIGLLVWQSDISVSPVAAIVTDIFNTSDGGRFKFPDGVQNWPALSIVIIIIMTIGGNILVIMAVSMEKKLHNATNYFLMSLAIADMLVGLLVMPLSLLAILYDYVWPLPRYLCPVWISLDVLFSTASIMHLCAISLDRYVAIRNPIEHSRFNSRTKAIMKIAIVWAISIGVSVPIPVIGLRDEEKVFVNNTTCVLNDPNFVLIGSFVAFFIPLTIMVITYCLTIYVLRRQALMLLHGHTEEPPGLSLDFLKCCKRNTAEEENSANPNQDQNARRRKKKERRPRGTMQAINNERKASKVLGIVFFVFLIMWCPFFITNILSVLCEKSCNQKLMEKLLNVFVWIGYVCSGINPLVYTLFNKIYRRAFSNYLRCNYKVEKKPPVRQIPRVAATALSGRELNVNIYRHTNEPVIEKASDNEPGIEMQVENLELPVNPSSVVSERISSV
- method: Receptor Selection and Amplification Technology
observed-property: pIC50
Formally, pIC50 is defined as -log10 of the concentration c, with c in mol/L.

q: # lookup: pIC50 of "Cc1nc2sccn2c(=O)c1CCN1CCC(=C(c2ccc(F)cc2)c2ccc(F)cc2)CC1"
a: 8.35
